Entries annotated with measured GI50
Test system: SK-MEL-5
experimental_details: NCI tumour cell line growth inhibition, 48 h
Active and inactive are the calls of the source. Cut-off read from the data, not from the text of the source: active = GI50 up to about 1.1 µM and inactive = higher.

Recorded results for 5 compounds are shown here.
[[record]]
compound = "Clc1cccc(Cl)c1C1SCc2nc3cc4ccccc4cc3n21 (stereo unspecified)"
result = "> 100 µM (inactive)"

[[record]]
compound = "CCn1c(=O)c2cn[nH]c2n(C)c1=O"
result = "> 100 µM (inactive)"

[[record]]
compound = "[N-]=[N+]=Nc1ccc(S(=O)(=O)Oc2cc(OS(=O)(=O)c3ccc(N=[N+]=[N-])cc3)cc(OS(=O)(=O)c3ccc(N=[N+]=[N-])cc3)c2)cc1"
result = "> 100 µM (inactive)"

[[record]]
compound = "Cn1c2ccc([N+](=O)[O-])cc2c(=O)n1Cc1ccccc1F"
result = "38.3 µM (inactive)"

[[record]]
compound = "O=c1c2cc([N+](=O)[O-])ccc2[nH]n1Cc1ccccc1Cl"
result = "34.7 µM (inactive)"


Retrieve GI50 on SK-MEL-5; query COc1cc(/C=C/c2ccc(Br)cc2)cc(OC)c1OC
5.9 µM (inactive)

# assay system SK-MEL-5: give GI50 of CCC(CC)C(=O)OC[n+]1cccc(-c2c(COC(=O)NC(C)C)c(COC(=O)NC(C)C)c3n2CCC3)c1
> 100 µM (inactive)

Provide the reported GI50 (system: SK-MEL-5) for COC(=O)CN1SC2(SC13C(C)(C)C(=O)C3(C)C)C(C)(C)C(=O)C2(C)C
35.2 µM (inactive)

Recall the reported GI50 of Cc1ccc(S(=O)(=O)Oc2nc3nc4ccccc4nc3nc2OS(=O)(=O)c2ccc(C)cc2)cc1 on SK-MEL-5 and write it down.
> 100 µM (inactive)

Enter GI50 (test system SK-MEL-5) for COc1c(C)c(O)c2c(c1C)OC(c1ccccc1)CC2=O (stereo unspecified)
> 10 µM (inactive)

====

Test system: MCF7
experimental_details: NCI tumour cell line growth inhibition, 48 h
Active and inactive are the calls of the source. No stated cut-off is given here; in the data, active = GI50 up to about 1.1 µM and inactive = higher.
measured_property: GI50

Below, 5 molecules whose answers are already recorded.
[[record]]
molecule = "CC(=O)NNC1=NN(C(C)=O)C2(S1)C(=O)Nc1ccc(Br)cc12 (stereo unspecified)"
target_or_system = "MCF7"
result = "> 100 µM (inactive)"

[[record]]
molecule = "CCOP(=O)(OCC)C(N)Cc1ccc(OC)c(OC)c1 (stereo unspecified)"
target_or_system = "MCF7"
result = "45.3 µM (inactive)"

[[record]]
molecule = "CC1(C)CCC[C@@]2(C)C1CC[C@@]1(CO)O[C@H](C3=CC(=O)OC3O)C[C@H]12 (stereo partly specified)"
target_or_system = "MCF7"
result = "6.82 µM (inactive)"

[[record]]
molecule = "CSc1c(C(=O)Nc2ccc(Cl)cc2)c(N)n(N)c(=O)c1C#N"
target_or_system = "MCF7"
result = "75.3 µM (inactive)"

[[record]]
molecule = "CC(C)=CCC/C(C)=C/CO"
target_or_system = "MCF7"
result = "> 100 µM (inactive)"


Supply recorded GI50 for C/C(=N\O)c1ccc(Nc2nc3ccccc3c3occc23)cc1 here.
3.42 µM (inactive)

====

Tested on: CAKI-1
experimental_details: NCI tumour cell line growth inhibition, 48 h
Activity calls are given as the source filed them. No stated cut-off is given here; in the data, active = GI50 up to about 1.1 µM and inactive = higher.
Your reply should match one of these outcome classes. active, inactive

Example results:
[[record]]
compound = "COC(=O)[C@@H]1c2c(oc3cc(CO)cc(O)c3c2=O)C=C[C@H]1O"
group = "inactive"

[[record]]
compound = "CSc1nc(SC)c2c(C)cn(C3OC(C)C(O)C(O)C3O)c2n1 (stereo unspecified)"
group = "active"

[[record]]
compound = "O[C@H]1[C@H]2[C@H](O)C[C@H](CCOCc3ccccc3)CN2C[C@H]1O"
group = "inactive"


# ---- query compound ----
How did this test come out for O=c1cc(-c2ccccc2)oc2cc(OCC(O)COc3ccc4c(=O)cc(-c5ccccc5)oc4c3)ccc12 ?
inactive
